src = patent US20120214862A1

We begin with a simple list: items and their reported % Inhibition (human Factor 7 mRNA).
tested on: human Factor 7 mRNA; experiment: Antisense inhibition of human Factor 7 mRNA in HepB3 cells, lipofectin, 50 nM, real-time RT-PCR; type: cell-based; conditions: Example 6 microwalk, nucleobases 15098 to 15122 of SEQ ID NO: 1; HepB3, lipofectin, 50 nM, ~24 h
In the oligonucleotide strings, read from the 5' end, every base follows the letter of its sugar. An asterisk marks phosphorothioate; unmarked linkages are phosphodiester. Other units and linkages are bracketed, terminal groups are in braces. A string of capitals states the bases alone. e = 2'-O-(2-methoxyethyl) (MOE); [5mC] = 5-methylcytosine; d = 2'-deoxy (DNA)
Enter your answer as a number in %; do not include the unit.

422288 (antisense eA*e[5mC]*dA*dG*d[5mC]*dA*d[5mC]*dA*d[5mC]*dA*dT*dG*dG*dA*dG*eT*e[5mC]*eA*eG*e[5mC]) [compound 422288] :: 44
422134 (antisense eG*e[5mC]*eA*e[5mC]*eA*d[5mC]*dA*dT*dG*dG*dA*dG*dT*d[5mC]*dA*eG*e[5mC]*eA*eT*e[5mC]) [compound 422134] :: 67
422209 (antisense eA*eG*e[5mC]*dA*d[5mC]*dA*d[5mC]*dA*dT*dG*dG*dA*dG*dT*d[5mC]*dA*dG*e[5mC]*eA*eT) [compound 422209] :: 47
422137 (antisense eA*e[5mC]*eA*eG*e[5mC]*dA*d[5mC]*dA*d[5mC]*dA*dT*dG*dG*dA*dG*eT*e[5mC]*eA*eG*e[5mC]) [compound 422137] :: 45
422287 (antisense e[5mC]*eA*dG*d[5mC]*dA*d[5mC]*dA*d[5mC]*dA*dT*dG*dG*dA*dG*dT*e[5mC]*eA*eG*e[5mC]*eA) [compound 422287] :: 41

Consider the record given below.
Asked: Output measured % Inhibition (human Factor 7 mRNA) for this item: 407643 (antisense e[5mC]*eA*e[5mC]*eA*e[5mC]*dA*dT*dG*dG*dA*dG*dT*d[5mC]*dA*dG*e[5mC]*eA*eT*e[5mC]*eG) [compound 407643]
Given back: 69
